The entries below come with measured zone of inhibition at 200 µg/disc values attached.
System: Bacillus subtilis
TEST_SUMMARY: Antimicrobial activity against Bacillus subtilis ATCC 6051 at 200 ug/disk by standard agar diffusion assay
Format: functional
DETAILS: read-out: IZ
Respond with the bare value in mm.

Here is how some compounds turned out for zone of inhibition at 200 µg/disc.
| COMPOUND | TARGET_OR_TEST_SYSTEM | zone of inhibition at 200 µg/disc (mm) |
| --- | --- | --- |
| COc1cc(O)c2c(c1)C(=O)c1cc(C)c(O)cc1C2=O [MACROSPORIN] | Bacillus subtilis | 23 |
| O=Cc1c(O)cccc1CCC(=O)O | Bacillus subtilis | 22 |
| COc1cc(O)c2c(c1)C(=O)C1=C(C2=O)[C@H](O)[C@@H](O)[C@@](C)(O)[C@@H]1O [ALTERSOLANOL A] | Bacillus subtilis | 33 |

Alright, here's another compound for you.
Problem: Consider the compound shown here: O=C(O)CC1OCc2c(O)cccc21 (racemic) What is its recorded zone of inhibition at 200 µg/disc?
Solution: 8

Origin of values: ChEMBL document CHEMBL1150593
